Protocol details: Liver microsomal stability, human liver microsomes
Type: in vitro ADME
Assay conditions: 1 μM compound, NADPH, read-out: t1/2 (min) in HLM
Please go through the items and note down their half-life at 1 μM.

Given item COc1ncnc(C2CC2)c1-c1ncc2nc(C3CC3)n(Cc3ccc(-n4nc(C(F)(F)F)cc4C)cc3)c2n1 , the value recorded as its half-life at 1 μM is > 25 min

Given item COc1ncnc(C2CC2)c1-c1ncc2cnn(Cc3ccc(-c4nc(C(F)(F)F)cn4C)cc3)c2n1 , the value recorded as its half-life at 1 μM is < 25 min

Given item CCn1cc(C(F)(F)F)nc1-c1ccc(Cn2ncc3cnc(-c4c(OC)ncnc4OC)nc32)cc1 , the value recorded as its half-life at 1 μM is > 25 min

Given item CCn1cc(C(F)(F)F)nc1-c1ccc(Cn2nc(N3CCC3)c3cnc(-c4c(OC)ncnc4C4CC4)nc32)cc1 , the value recorded as its half-life at 1 μM is < 25 min

----------
Protocol details: ADME solubility determination at pH 2.0 and pH 7.4
Assay type: physicochemical
Assay conditions: aqueous buffer, thermodynamic from solid; PBS pH 7.4, shaken at 25° C. for 24 hours, LC-MS/MS; read-out: Solubility at pH 7.4
Metric name: solubility at 24 h

Given item Cc1cnn(C(C)C)c1-c1ncc2cnn(Cc3ccc(-n4nc(C(F)(F)F)cc4C)cc3)c2n1 , the value recorded as its solubility at 24 h is < 10 µM

Given item CCn1cc(C(F)(F)F)nc1-c1ccc(Cn2nc(C)c3cnc(-c4c(OC)ncnc4C4CC4)nc32)cc1 , the value recorded as its solubility at 24 h is < 10 µM

Given item COCC(C)n1cc(C(F)(F)F)nc1-c1ccc(Cn2ncc3cnc(-c4c(OC)ncnc4C4CC4)nc32)cc1 (stereo not drawn) , the value recorded as its solubility at 24 h is > 10 µM

Given item COc1ncnc(C2CC2)c1-c1ncc2cnn([C@H](C)c3ccc(-c4nc(C(F)(F)F)cn4C)cc3)c2n1 (single isomer, unassigned) , the value recorded as its solubility at 24 h is > 10 µM

Given item CCn1cc(C(F)(F)F)nc1-c1ccc(Cn2ncc3cnc(-c4c(OC)cnn4C4CCC4)nc32)cc1 , the value recorded as its solubility at 24 h is < 10 µM

Given item CC(C)c1ccccc1-c1ncc2ncn(Cc3ccc(-c4nc(C(F)(F)F)cn4C)cc3)c2n1 , the value recorded as its solubility at 24 h is < 10 µM

----------
Protocol details: Liver microsomal stability, human liver microsomes
Assay type: in vitro ADME
Assay conditions: 1 μM compound, NADPH, read-out: t1/2 (min) in HLM
Please go through the items and note down their half-life at 1 μM.

Given item COc1cc(Cn2ncc3cnc(-c4c(OC)ncnc4C4CC4)nc32)ccc1-c1nc(C(F)(F)F)cn1CCF , the value recorded as its half-life at 1 μM is > 25 min

Given item Cc1cc(C(F)(F)F)nn1-c1ccc(Cn2ncc3cnc(-c4cccnc4C(C)C)nc32)cc1 , the value recorded as its half-life at 1 μM is > 25 min

Given item COc1ncnc(C2CC2)c1-c1ncc2cnn(Cc3ccc(-n4nc(C(F)(F)F)cc4C#N)cc3)c2n1 , the value recorded as its half-life at 1 μM is > 25 min

Given item CCn1cc(C(F)(F)F)nc1-c1ccc(Cn2ncc3cnc(-c4c(OC5CCC5)ncnc4C4CC4)nc32)cc1 , the value recorded as its half-life at 1 μM is < 25 min
